# Test system: A549
# experimentSummary: Growth inhibition of human A549 cells after 48 hrs by MTT assay
# Format: functional, cell-based
# condition: A549, 48 h
Give measured pIC50 for each item. Keep answers brief.
The read-out pIC50 is expressed as -log10 of concentration in moles per litre.

Input: Look up pIC50 of C/C(=N\NC(=O)c1cc(-c2ccc(Cl)cc2)nn1Cc1ccc(C(C)(C)C)cc1)c1cc(Cl)cc(Cl)c1O and report it.
Output: 5.10

Input: Please give the documented pIC50 of C/C(=N\NC(=O)c1cc(-c2ccccc2)nn1Cc1ccc(C(C)(C)C)cc1)c1cc(Cl)cc(Cl)c1O
Output: 5.50

Input: Note pIC50 for the compound shown: C/C(=N\NC(=O)c1cc(-c2ccccc2)nn1Cc1ccc(C(C)(C)C)cc1)c1cc(Cl)ccc1O
Output: 5.56

Input: Specify reported pIC50 for the compound shown: C/C(=N\NC(=O)c1cc(-c2ccc(Cl)cc2)nn1Cc1ccc(C(C)(C)C)cc1)c1cc(Cl)ccc1O
Output: 6.55
